Target: Full length human recombinant PIKFYVE (Homo sapiens, UniProt Q9Y2I7, L932S/Q1183K/Q995L/S1033A/S696N/T998S)
Construct: Full length human recombinant PIKFYVE; purchased Carna Biosciences (Kobe, Japan); host or cells: baculovirus expression system (insect cells)
Sequence (Q9Y2I7 whole entry S696N/L932S/Q995L/T998S/S1033A/Q1183K): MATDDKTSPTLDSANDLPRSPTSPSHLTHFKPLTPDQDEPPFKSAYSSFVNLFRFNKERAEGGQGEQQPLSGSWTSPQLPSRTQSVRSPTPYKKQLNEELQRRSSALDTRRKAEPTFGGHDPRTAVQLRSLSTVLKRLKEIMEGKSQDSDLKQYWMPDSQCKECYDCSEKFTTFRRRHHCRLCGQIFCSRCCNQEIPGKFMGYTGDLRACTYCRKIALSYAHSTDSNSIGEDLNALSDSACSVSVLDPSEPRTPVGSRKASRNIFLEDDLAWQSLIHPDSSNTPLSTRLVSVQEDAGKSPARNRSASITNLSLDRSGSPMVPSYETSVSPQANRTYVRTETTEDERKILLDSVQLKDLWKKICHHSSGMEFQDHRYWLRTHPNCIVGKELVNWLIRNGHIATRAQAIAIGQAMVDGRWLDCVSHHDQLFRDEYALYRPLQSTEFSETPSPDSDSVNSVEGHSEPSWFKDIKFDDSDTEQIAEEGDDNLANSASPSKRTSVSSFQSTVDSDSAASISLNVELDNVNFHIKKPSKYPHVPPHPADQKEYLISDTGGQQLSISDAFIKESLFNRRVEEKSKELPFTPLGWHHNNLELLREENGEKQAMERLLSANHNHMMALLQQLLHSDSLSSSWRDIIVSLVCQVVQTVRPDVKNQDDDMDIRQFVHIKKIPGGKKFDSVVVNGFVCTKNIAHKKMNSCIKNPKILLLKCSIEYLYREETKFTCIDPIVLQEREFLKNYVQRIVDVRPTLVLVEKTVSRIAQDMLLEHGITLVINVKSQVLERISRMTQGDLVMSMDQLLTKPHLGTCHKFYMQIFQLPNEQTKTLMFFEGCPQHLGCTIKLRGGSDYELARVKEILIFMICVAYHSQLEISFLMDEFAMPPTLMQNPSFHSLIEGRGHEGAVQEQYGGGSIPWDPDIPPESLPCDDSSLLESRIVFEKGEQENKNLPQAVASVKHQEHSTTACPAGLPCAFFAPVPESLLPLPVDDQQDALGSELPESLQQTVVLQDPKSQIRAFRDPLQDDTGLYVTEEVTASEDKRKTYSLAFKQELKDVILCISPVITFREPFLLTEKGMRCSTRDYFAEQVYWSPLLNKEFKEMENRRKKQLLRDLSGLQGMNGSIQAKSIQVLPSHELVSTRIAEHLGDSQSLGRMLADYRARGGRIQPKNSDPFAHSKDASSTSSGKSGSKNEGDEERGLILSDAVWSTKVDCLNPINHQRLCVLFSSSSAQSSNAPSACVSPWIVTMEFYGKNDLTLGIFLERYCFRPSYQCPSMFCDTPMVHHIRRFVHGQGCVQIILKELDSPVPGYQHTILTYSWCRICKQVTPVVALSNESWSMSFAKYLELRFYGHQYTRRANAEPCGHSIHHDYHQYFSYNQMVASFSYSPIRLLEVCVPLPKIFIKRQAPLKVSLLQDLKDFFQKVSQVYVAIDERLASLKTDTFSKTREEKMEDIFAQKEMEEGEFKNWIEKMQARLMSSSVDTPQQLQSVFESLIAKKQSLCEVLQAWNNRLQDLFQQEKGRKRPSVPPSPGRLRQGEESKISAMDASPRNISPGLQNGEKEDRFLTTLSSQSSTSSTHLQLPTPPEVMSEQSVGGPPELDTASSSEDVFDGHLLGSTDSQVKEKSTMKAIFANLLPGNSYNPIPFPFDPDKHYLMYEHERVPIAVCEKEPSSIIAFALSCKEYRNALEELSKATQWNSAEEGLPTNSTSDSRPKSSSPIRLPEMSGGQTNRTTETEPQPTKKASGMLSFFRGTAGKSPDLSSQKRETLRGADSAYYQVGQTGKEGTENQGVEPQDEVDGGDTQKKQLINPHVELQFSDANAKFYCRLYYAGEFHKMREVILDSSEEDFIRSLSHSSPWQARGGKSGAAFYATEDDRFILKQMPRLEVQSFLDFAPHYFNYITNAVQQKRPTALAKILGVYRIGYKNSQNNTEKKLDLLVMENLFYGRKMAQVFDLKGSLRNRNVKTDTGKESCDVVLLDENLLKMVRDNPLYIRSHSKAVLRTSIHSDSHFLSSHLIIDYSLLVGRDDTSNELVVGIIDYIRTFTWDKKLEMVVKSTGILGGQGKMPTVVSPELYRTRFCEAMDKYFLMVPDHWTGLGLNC
Assay: Inhibition of PIKfyve (microfluidic electrophoresis kinase assay)
Assay type: biochemical
Conditions: 2 nM enzyme, 1 μM PI3P, 3 h at room temperature, 12 concentrations; read-out: PIKfyve IC50
measuredAttribute: IC50

Query string: Query IC50 for c1ccc(CNc2nc(N3CCOCC3)c3oc4ncccc4c3n2)cc1
Result string: > 10 µM

Query string: Query IC50 for Cn1ccnc1Nc1nc(N2CCOCC2)c2oc3ncccc3c2n1
Result string: > 10 µM

Query string: Query IC50 for O=C(Nc1nc(N2CCOCC2)c2oc3ncccc3c2n1)c1ccccc1
Result string: > 10 µM

----------
Target: PI3Kδ (p110δ/p85α) (Homo sapiens)
Construct: Full-length N-terminal GST-; GST (N); host or cells: SF9 cells (baculovirus)
Sequence (O00329 whole entry): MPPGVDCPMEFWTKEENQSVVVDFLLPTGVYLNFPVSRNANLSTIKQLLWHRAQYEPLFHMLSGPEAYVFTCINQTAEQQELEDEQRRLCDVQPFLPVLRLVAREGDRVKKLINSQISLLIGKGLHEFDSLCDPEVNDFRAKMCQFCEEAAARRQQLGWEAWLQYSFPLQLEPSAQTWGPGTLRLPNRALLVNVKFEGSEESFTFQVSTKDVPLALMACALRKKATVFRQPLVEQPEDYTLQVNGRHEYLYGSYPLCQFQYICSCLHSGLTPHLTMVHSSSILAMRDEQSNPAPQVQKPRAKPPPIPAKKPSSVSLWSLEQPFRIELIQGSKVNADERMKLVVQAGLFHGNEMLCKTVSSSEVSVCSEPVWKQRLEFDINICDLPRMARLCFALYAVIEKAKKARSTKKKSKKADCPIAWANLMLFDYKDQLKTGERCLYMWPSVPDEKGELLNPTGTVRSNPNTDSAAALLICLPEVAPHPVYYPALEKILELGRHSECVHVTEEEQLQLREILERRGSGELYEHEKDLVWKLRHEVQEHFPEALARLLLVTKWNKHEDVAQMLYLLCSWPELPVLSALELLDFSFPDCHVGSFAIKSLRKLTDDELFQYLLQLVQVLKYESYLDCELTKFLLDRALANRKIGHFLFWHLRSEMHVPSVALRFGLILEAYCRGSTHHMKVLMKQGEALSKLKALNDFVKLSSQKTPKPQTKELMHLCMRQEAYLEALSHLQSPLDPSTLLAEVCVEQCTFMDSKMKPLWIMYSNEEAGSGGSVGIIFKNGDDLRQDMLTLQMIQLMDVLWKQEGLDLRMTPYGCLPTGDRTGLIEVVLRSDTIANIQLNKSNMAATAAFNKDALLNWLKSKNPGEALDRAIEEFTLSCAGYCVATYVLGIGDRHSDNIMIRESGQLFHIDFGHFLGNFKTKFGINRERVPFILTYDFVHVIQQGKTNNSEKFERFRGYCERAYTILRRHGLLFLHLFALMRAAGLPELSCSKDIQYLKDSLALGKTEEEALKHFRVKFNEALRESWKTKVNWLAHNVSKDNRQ
Sequence (P27986 whole entry, further chain): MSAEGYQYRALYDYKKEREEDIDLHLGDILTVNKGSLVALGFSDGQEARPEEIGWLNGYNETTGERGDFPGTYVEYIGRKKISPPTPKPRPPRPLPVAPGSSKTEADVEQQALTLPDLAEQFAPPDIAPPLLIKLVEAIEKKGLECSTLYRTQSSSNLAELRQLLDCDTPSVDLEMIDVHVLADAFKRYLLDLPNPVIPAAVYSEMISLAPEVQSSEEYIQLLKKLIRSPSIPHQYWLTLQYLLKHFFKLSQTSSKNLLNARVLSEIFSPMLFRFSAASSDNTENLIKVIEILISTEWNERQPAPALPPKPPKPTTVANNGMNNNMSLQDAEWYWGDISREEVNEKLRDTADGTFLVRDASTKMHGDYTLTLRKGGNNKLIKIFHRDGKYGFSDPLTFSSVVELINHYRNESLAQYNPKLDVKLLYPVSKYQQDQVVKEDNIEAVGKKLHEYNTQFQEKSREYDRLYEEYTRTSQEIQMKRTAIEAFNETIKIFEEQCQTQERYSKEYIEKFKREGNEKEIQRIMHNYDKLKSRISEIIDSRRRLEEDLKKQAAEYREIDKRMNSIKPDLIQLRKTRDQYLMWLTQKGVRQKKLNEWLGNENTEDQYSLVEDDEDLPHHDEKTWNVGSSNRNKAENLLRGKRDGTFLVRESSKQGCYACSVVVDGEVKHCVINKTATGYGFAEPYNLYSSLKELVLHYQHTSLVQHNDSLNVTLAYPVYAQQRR
Assay type: biochemical
Conditions: 0.25 nM enzyme, ATP 90 μM, 1 μM PIP2, 3 h room temperature; read-out: PI3Kδ IC50
Provide the reported log10 of IC50 of each item.
Could you please treat all values as log10 of IC50 in µM?

Query string: Query log10 of IC50 for c1ccc(Nc2nc(N3CCOCC3)c3oc4ncccc4c3n2)nc1 [Example 40]
Result string: -1.18

Query string: Query log10 of IC50 for c1ccc(-c2cc(Nc3nc(N4CCOCC4)c4oc5ncccc5c4n3)[nH]n2)cc1 [Example 9]
Result string: -1.12

Query string: Query log10 of IC50 for Cc1cc(N(C)c2nc(N3CCOCC3)c3oc4ncccc4c3n2)nn1C [Example 11]
Result string: -0.56

Query string: Query log10 of IC50 for C[C@H](Nc1nc(N2CCOCC2)c2oc3ncccc3c2n1)C1CC1 [Example 36]
Result string: -1.11

Query string: Query log10 of IC50 for c1cnc2oc3c(N4CCOCC4)nc(Nc4ccncc4)nc3c2c1 [Example 38]
Result string: 0.17

Query string: Query log10 of IC50 for c1ccc(CCNc2nc(N3CCOCC3)c3oc4ncccc4c3n2)cc1 [Example 21]
Result string: -1.43

Query string: Query log10 of IC50 for Cn1ccnc1Nc1nc(N2CCOCC2)c2oc3ncccc3c2n1 [Example 12]
Result string: 0.28

Query string: Query log10 of IC50 for c1ccc(Nc2nc(N3CCOCC3)c3oc4ncccc4c3n2)cc1 [Example 37]
Result string: -1.39

----------
Molecular target: PI3Kβ (p110β/p85α) (Homo sapiens, UniProt P42338)
Construct: Full-length N-terminal GST-; GST (N); host or cells: SF9 cells (baculovirus)
Sequence (P42338 whole entry): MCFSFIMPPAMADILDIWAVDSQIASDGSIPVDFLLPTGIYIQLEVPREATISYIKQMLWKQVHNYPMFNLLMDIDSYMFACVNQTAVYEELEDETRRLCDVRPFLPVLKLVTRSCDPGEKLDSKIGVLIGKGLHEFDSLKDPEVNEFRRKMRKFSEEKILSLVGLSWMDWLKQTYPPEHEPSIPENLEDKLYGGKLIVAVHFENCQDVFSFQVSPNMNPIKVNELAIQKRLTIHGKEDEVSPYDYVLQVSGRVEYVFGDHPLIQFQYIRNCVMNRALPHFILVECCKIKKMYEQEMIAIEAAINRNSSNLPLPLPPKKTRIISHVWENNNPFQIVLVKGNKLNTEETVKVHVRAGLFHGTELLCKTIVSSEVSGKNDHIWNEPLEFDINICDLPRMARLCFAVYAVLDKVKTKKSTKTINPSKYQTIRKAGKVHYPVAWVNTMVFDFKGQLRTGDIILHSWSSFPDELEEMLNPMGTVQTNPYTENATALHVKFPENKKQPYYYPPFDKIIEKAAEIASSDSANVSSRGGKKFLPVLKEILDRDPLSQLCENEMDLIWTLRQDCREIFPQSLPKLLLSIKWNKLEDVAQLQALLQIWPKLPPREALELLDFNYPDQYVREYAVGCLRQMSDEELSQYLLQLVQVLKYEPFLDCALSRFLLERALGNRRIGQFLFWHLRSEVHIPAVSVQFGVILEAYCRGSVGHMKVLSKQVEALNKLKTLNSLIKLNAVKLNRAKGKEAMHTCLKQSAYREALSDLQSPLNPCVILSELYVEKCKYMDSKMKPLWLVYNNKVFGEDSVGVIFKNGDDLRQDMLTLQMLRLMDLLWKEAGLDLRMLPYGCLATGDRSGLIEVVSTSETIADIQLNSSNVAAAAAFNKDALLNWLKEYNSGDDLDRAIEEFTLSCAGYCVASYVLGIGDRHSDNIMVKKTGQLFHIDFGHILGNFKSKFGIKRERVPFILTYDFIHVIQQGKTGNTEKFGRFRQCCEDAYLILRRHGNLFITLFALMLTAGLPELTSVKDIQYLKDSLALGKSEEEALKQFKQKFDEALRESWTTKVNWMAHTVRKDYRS
Sequence (P27986 whole entry, further chain): as the sequence (P27986 whole entry, further chain) above
Format: biochemical
Conditions: 1 nM enzyme, ATP 60 μM, 1 μM PIP2, 3 h room temperature; read-out: PI3Kβ IC50
measuredAttribute: IC50 (nM)
The answer is to be given in nM; state only the numeric part.

Query string: Query IC50 for c1cnc2oc3c(N4CCOCC4)nc(Nc4cc(-c5ccncc5)n[nH]4)nc3c2c1
Result string: 1310

Query string: Query IC50 for c1ccc(Nc2nc(N3CCOCC3)c3oc4ncccc4c3n2)nc1
Result string: 1190

Query string: Query IC50 for C[C@H](Nc1nc(N2CCOCC2)c2oc3ncccc3c2n1)C1CC1
Result string: 749

Origin of the recorded values: patent US20230038929A1
